Data provenance: the supplement of paper PMC11451515

Tested on: SEM cells
Experiment: cell viability relative to DMSO control; higher = less cytotoxic
Conditions: HPLM + 10% dialyzed FBS; 48 h; 0.0211 µM
assayMetric: cell viability (%)
Give the quantity in %, number only.

{"columns": ["compound", "cell viability [%]"],
 "data": [
  ["COc1cc([S+](C)(=O)[O-])ccc1Nc1nc2ccc(-c3ccc(NC(=O)[C@H](C)c4ccc(F)cc4)cc3)cn2n1", 89.2],
  ["CCc1nc(C(N)=O)c(Nc2ccc(N3CCC(N4CCN(C)CC4)CC3)c(OC)c2)nc1NC1CCOCC1", 104],
  ["CCOC(=O)c1c(/C(C#N)=C\\N)c2ccc(Cl)c(Cl)c2n1C", 96.9]
]}

// next item, cell viability requested
Field cell viability (system: SEM cells) for entry Clc1ccc(C(Cn2ccnc2)OCc2ccc(Sc3ccccc3)cc2)c(Cl)c1 (centres undefined) = 96.4
